For each record, write down the corresponding Kd.
# Study System: T1, RSV postfusion F (postF), subtype A (respiratory syncytial virus, subtype A, UniProt P03420 26-513)
# T1 construct: also called F ΔFP; Postfusion subtype A
# Protocol Description: BLI, IgG
Numbers only, in nM.

Binder	Kd [nM]
ADI-21004 (antibody, V domains shown) VH: QVQLQESGGGVVQPGRSLTLSCAASGFTFSSYGMHWVRQAPGKGLDWVAEIWYDGSNKYYVDSVKGRFTISRDNSKNTLYLQMKSLRAEDTAIYYCARDGGYESPFFDKWGQGTLVTVSS VL: EIVMTQSPDSLGVSLGERATINCKSSQSLYTSNHENSLAWYQQKPGQPPRLLIYWASTRELGVPDRFSGSGSGTDFTLTISSLQAEDVAVYYCQQYHTTPLTFGPGTKVEIK	0.54

Next item in the queue.
Request: Entry ADI-14418 (antibody, V domains shown, also called Ab 84) VH: QVQLVQSGAEVKKPGSSVKVSCKASGGTFTNYNINWVRQAPGQGLQWMGRISPTFAIANYAQKFQGRVTITADKSTSTAYMELSSLRSEDTAVYYCARAPHSGYDLALDYWGQGTLVTVSS VL: DIQMTQSPSTLSASVGDRVTITCRASQSISSWLAWYQQKPGKAPKLLIYEASSLQSGVPSRFSGSGSGTEFTLTITSLQPDDFATYYCQQYNVYPWTFGQGTKVDIK has what Kd?
Result: 0.441
